Quick reference: half-life of the listed items.
Experiment: in vitro
Settings: human, microsomes
Supply the numeric figure in min, leaving out any unit text.

| Smi | Readout unit | Recorded measurement |
| --- | --- | --- |
| CCCN(CCC)c1c(C)nc(-c2c(C)cc(C)cc2OC)n(CCC)c1=O | min | 3 |
| CCCN(CCC)c1c(C)nc(-c2c(C)cc(C)cc2OC)n(C(C)C)c1=O | min | 2.1 |
| CCCN(CCC)c1c(C)nc(-c2c(C)cc(C)cc2OC)n(CC(F)(F)F)c1=O | min | 3.4 |
| CCCN(CCC)c1c(C)nc(-c2c(C)cc(C)cc2OC)n(C)c1=O | min | 2.5 |
| CCCN(CCC)c1c(C)nc(-c2c(C)cc(C)cc2OC)n(CCF)c1=O | min | 3 |

q: Param item = CCCN(CCC)c1c(C)nc(-c2ccc(OC)cc2OC)n(CCC)c1=O ; retrieve measured half-life.
a: 2.3

q: What value of half-life has been reported for the following compound? CCCN(CCC)c1c(C)nc(-c2c(OC)cccc2OC(F)F)n(CC)c1=O
a: 1.8

q: So what does the record say about half-life for CCCN(CCC)c1c(C)nc(-c2ccc(OC)cc2OC)n(CC2CC2)c1=O ?
a: 1.5

q: What value of half-life has been reported for the following compound? CCCN(CCC)c1c(C)nc(-c2c(C)cc(C)cc2C)n(C)c1=O
a: 4.6

q: Data request, read-out half-life, for CCCN(CCC)c1c(C)nc(-c2ccc(OC)cc2OC)n(CCOC)c1=O
a: 1.3

The measurements presented in this section are drawn from ChEMBL document CHEMBL1146617.
